Overview of reported pIC50 across a group of compounds:
Biological target: Calcium/calmodulin-dependent protein kinase type II subunit delta (Homo sapiens, UniProt Q13557)
Sequence (Q13557 whole entry): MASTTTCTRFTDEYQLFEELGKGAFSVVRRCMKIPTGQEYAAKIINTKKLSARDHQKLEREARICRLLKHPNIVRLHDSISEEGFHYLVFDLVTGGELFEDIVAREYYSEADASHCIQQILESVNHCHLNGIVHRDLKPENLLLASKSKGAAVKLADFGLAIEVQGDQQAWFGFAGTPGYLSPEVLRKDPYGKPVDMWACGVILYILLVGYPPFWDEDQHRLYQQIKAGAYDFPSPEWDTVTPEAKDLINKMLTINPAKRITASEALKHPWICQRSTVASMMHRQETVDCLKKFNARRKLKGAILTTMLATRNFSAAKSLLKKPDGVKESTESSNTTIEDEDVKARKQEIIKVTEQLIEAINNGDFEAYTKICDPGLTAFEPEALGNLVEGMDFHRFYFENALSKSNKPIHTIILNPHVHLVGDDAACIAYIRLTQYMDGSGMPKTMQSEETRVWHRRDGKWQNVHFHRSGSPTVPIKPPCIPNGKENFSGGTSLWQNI
Test: Inhibition of CaMK2delta
pIC50: −log10 of the molar value.
observable: pIC50

1. NCCCn1cc(C2=C(c3cccc(Br)c3)C(=O)NC2=O)c2ccccc21 : 6.74
2. CN1CCCC1CCn1cc(C2=C(c3c[nH]c4ccccc34)C(=O)NC2=O)c2ccccc21 (stereo not drawn) : 5.72
3. NCC(O)Cn1cc(C2=C(c3ccccc3)C(=O)NC2=O)c2ccccc21 (stereo not drawn) : 6.35
4. Cn1cc(C2=C(c3cn(C4CCCNC4)c4ccccc34)C(=O)NC2=O)c2ccccc21 (stereo not drawn) : 6.52
5. NCCCn1cc(C2=C(c3c[nH]c4ccc(Br)cc34)C(=O)NC2=O)c2ccccc21 : 7.47
6. O=C1NC(=O)C(c2c[nH]c3ccccc23)=C1c1c[nH]c2ccccc12 [RO-316233] : 5.92
7. O=C1NC(=O)C(c2c[nH]c3ccccc23)=C1c1cccc(Br)c1 : 5.45
8. CC(C)(C)OC(=O)NCCCn1cc(C2=C(c3c[nH]c4ccc(Br)cc34)C(=O)NC2=O)c2ccccc21 : 5.12
9. CC(C)(C)OC(=O)NCCCn1cc(C2=C(c3c[nH]c4ccccc34)C(=O)NC2=O)c2ccccc21 : 5.42
10. Cn1cc(C2=C(c3cn(CCCN)c4ccccc34)C(=O)NC2=O)c2ccccc21 : 6.51
11. NCCCn1cc(C2=C(c3ccccc3)C(=O)NC2=O)c2ccccc21 : 5.87
12. Cn1cc(C2=C(c3c[nH]c4ccc(Br)cc34)C(=O)NC2=O)c2ccccc21 : 6.06
13. O=C1NC(=O)C(c2cn(CCCN3CCNCC3)c3ccccc23)=C1c1c[nH]c2ccccc12 : 5.69
14. O=C1NC(=O)C(c2cn(CCC3CCCCN3)c3ccccc23)=C1c1c[nH]c2ccccc12 (stereo not drawn) : 5.84
15. Cn1cc(C2=C(c3cn(C4CCN(Cc5ccccc5)CC4)c4ccccc34)C(=O)NC2=O)c2ccccc21 : 5.73

====

Biological target: Calcium/calmodulin-dependent protein kinase type II subunit delta (Homo sapiens, UniProt Q13557)
Assay: Inhibition of CaMK2delta
observable: IC50

1) CC(C)(C)OC(=O)NCCCn1cc(C2=C(c3ccccc3)C(=O)NC2=O)c2ccccc21 : > 20 µM
2) O=C1NC(=O)C(c2c[nH]c3ccccc23)=C1c1ccccc1 : > 20 µM
3) Cn1cc(C2=C(c3ccccc3)C(=O)NC2=O)c2ccccc21 : > 20 µM
